B1: C2orf65 (parent)
chain: QLDWDELETNQQHFHALCHSLLVS

Variants of: B1
Test: protein stability index of a GFP-peptide fusion (GPS, HEK-293T) (PSI 1-6); higher = more stable;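 also: lentivirally expressed fusions sorted by FACS into six bins by GFP to DsRed ratio, PSI derived from sequencing read proportions per bin multiplied by bin number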
Settings: c terminus: a fixed tail appended
Assign protein stability index to each entry below.

Solved cases below.
F14Q
3.42
H13S
1.98
W4A
2.93
A16T
1.57
A16C
2.31

// for each variant in input: emit protein stability index
1. Q11M
2. A16W
3. L2M
4. A16K

1: 2.39; 2: 1.53; 3: 1.94; 4: 2.91

// for each variant in input: emit protein stability index
1. T9K
2. A16D
3. N10Q
4. H19N
5. L7A

1: 1.97; 2: 2.58; 3: 2.07; 4: 2.17; 5: 2.33
